Data provenance: ChEMBL document CHEMBL1156600

Hi there, I'd appreciate the recorded EC50 for every entry that follows.
- Test system: PC-12
- measurement.description: Cytotoxicity against rat PC12 cells by MTT assay
- Assay type: functional, cell-based
Kindly provide the numeric value in µg/mL only, without the unit symbol.

Notebook entry, PC-12 assay: EC50 of C=C1CCCC(C)(C)C1(O)CC/C(C)=C/CC[C@]1(C)CC[C@H]([C@@H](C)C(=O)OC)OO1 (some centres not stated) [EPIMUQUBILIN B] = ?
6

Another compound to check: CC1=C(CC[C@]2(C)CC[C@H]([C@@H](C)C(=O)O)OO2)[C@@]2(C)CCCC(C)(C)[C@@H]2CC1=O [DIACARPEROXIDE F]
0.8

One more compound: CC1=C(CC[C@]2(C)CC[C@H]([C@@H](C)C(=O)O)OO2)[C@]2(C)CCCC(C)(C)[C@H]2CC1 [DIACARPEROXIDE D]
8.1

And COC(=O)[C@H](C)[C@H]1CC[C@@](C)(CCC2=C(C)CCCC2(C)C)OO1 ?
6.2
